Molecular target: EPHB1 (UniProt P54762)
Sequence (P54762 whole entry, looked up): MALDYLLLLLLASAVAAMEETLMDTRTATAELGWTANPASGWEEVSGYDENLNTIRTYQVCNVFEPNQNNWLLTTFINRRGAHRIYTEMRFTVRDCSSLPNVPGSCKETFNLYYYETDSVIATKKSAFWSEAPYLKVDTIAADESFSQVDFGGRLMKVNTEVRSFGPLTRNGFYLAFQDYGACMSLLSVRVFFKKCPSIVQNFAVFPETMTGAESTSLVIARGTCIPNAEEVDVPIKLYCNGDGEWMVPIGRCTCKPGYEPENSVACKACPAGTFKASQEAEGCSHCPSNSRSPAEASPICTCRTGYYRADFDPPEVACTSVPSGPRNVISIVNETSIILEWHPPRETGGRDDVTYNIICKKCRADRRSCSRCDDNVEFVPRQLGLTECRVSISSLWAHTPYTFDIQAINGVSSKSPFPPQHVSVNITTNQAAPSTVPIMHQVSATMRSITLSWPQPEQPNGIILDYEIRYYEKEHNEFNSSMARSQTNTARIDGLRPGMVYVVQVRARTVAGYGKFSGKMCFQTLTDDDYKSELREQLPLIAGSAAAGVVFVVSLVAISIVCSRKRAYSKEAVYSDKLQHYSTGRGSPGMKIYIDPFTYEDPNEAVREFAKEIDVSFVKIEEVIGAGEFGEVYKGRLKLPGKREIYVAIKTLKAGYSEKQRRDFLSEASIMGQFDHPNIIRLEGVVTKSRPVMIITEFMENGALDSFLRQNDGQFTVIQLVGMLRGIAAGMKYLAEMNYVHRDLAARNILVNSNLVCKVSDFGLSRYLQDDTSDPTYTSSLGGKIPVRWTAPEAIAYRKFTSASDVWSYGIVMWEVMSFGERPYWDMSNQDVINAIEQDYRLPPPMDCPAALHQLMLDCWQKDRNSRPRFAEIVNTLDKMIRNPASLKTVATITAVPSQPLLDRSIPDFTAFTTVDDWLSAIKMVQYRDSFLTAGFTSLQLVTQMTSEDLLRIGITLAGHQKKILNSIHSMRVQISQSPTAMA
Experiment: phosphorylation enrichment, bacterial display (enrichment ratio); higher = better substrate or ligand; peptides without Tyr show the background;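 further: 11-residue human phosphosite peptides and single-mutation variants displayed on the E. coli surface, counted by deep sequencing, each peptide's frequency after selection divided by its frequency in the unselected input library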;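 further: frequency after pTyr selection over input frequency; kinase dosed for 20-30% of maximal phosphorylation in three min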
phosphorylation enrichment below 0.9 gives Criterion not met; phosphorylation enrichment at or above it gives Criterion met.

Reference set, count: 10
Residues: RLSARYFQGDL [PDK3_Y337_Y334S]
Test System: EPHB1 (UniProt P54762)
Group: Criterion not met
--
Residues: CEHRGYLFLAI [TEK_Y897_YF]
Test System: EPHB1 (UniProt P54762)
Group: Criterion not met
--
Residues: SFCFRYCCAAR [SUMF1_Y344_R345C_YF]
Test System: EPHB1 (UniProt P54762)
Group: Criterion not met
--
Residues: KHMADYPDCKY [SOX11_Y113_Y116C]
Test System: EPHB1 (UniProt P54762)
Group: Criterion not met
--
Residues: EALDFYGEVRI [PTEN_Y155_T160I]
Test System: EPHB1 (UniProt P54762)
Group: Criterion not met
--
Residues: RPSGRYPVARR [SHANK3_Y1569]
Test System: EPHB1 (UniProt P54762)
Group: Criterion not met
--
Residues: FIGRIYLYLTK [GARS1_Y414]
Test System: EPHB1 (UniProt P54762)
Group: Criterion not met
--
Residues: GVKLTYGDAQN [SLC28A1_Y404]
Test System: EPHB1 (UniProt P54762)
Group: Criterion not met
--
Residues: DRLASYQDKVR [KRT12_Y139_L140Q]
Test System: EPHB1 (UniProt P54762)
Group: Criterion not met
--
Residues: RLAKTYETTLK [ALB_Y377_E382K]
Test System: EPHB1 (UniProt P54762)
Group: Criterion met

INPUT: // inclusive: phosphorylation enrichment at least 0.9? input: EFKKKYSDADI [CKAP5_Y1860_YF]
OUTPUT: Criterion not met

INPUT: Reported phosphorylation enrichment at or above 0.9? NLSVRYDSSLK [ABCC8_Y1353]
OUTPUT: Criterion not met

INPUT: Hello, I need to know if FPKARYHWLVL [APTX_Y214_YF] has measured phosphorylation enrichment not below 0.9. Thanks!
OUTPUT: Criterion not met

INPUT: Reported phosphorylation enrichment reaches at least 0.9 for KIKLNYTLPQD [NRAP_Y523_N519I] ?
OUTPUT: Criterion not met

INPUT: Assess whether reported phosphorylation enrichment for SVSVNYGDLVQ [GRAP_Y101_Q104L] sits at 0.9 or higher.
OUTPUT: Criterion not met
